Values from ChEMBL document CHEMBL3585341

List of pIC50 tested on Fatty-acid amide hydrolase 1 (Rattus norvegicus, UniProt P97612).
Sequence (P97612 whole entry): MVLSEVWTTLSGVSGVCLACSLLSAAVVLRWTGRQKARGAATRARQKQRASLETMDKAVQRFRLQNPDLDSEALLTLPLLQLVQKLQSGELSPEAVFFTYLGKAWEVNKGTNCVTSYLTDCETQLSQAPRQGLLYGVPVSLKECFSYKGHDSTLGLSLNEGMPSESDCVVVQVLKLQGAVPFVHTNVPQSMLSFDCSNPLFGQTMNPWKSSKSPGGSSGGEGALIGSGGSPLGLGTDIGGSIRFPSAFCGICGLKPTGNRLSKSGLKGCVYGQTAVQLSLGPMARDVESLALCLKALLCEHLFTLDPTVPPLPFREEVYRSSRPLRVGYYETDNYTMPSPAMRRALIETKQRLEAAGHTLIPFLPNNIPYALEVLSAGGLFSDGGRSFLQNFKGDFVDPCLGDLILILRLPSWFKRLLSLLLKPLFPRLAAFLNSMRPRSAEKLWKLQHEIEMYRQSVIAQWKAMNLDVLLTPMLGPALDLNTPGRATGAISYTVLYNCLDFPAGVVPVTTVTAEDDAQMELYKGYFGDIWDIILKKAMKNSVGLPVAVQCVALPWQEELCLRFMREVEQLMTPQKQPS
Answers are plain numbers, as −log10 of the molar value.

Example cases with answers are listed next.
- smiles string: "Cc1ccc(-c2ccccc2)n1CCCCCCNC(=O)Oc1ccccc1"
  assayed target: "Fatty-acid amide hydrolase 1 (Rattus norvegicus, UniProt P97612)"
  recorded measurement: 6.51
- smiles string: "Cc1cc(-c2ccccc2)c(-c2ccccc2)n1CCCCCCNC(=O)Oc1ccccc1"
  assayed target: "Fatty-acid amide hydrolase 1 (Rattus norvegicus, UniProt P97612)"
  recorded measurement: 5.59
- smiles string: "O=C(NCCCCCCn1c(-c2ccccc2)c(-c2ccccc2)c2ccccc21)Oc1ccccc1"
  assayed target: "Fatty-acid amide hydrolase 1 (Rattus norvegicus, UniProt P97612)"
  recorded measurement: 5.33
- smiles string: "O=C(NCCCCCn1ccc2ccccc21)Oc1cccnc1"
  assayed target: "Fatty-acid amide hydrolase 1 (Rattus norvegicus, UniProt P97612)"
  recorded measurement: 8.44

Now examine the next entry.
Suppose we examine the compound Cc1c(C#N)c(-c2ccccc2)c(-c2ccccc2)n1CCCCCCNC(=O)Oc1ccccc1 ; what pIC50 value has been reported?
5.06
